// data source = patent US20160068605A1

- system name: T1, Recombinant human CD123 SP1 ECD-His tag protein (human, UniProt P26951 20-305)
- T1 construct: bought from R&D Systems (#301-R3/CF); biotinylated for some assays; also called rhCD123 SP1; huCD123 ECD SP1
- T1 sequence: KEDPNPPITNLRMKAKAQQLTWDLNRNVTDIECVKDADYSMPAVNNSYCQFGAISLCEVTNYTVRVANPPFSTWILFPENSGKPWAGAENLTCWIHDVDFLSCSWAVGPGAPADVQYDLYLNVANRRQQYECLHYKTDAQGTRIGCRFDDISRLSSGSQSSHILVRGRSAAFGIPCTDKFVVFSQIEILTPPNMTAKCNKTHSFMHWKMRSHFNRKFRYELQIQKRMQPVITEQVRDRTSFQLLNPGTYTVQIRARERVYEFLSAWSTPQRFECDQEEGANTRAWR
- assay explanation: SPR ProteOn, captured mAb
endpoint: Kd

As a guide, the following entries are already answered.
>  <binder>
I3RB30 (antibody, IgG1, V domains shown, IgG1; also called 13RB30) VH: QVQLVQSGAEVKKPGSSVKVSCKASGGTFSSYAISWVRQAPGQGLEWMGWIIPIFGTANYAQKFQGRVTITADESTSTAYMELSSLRSEDTAVYYCARLVYSSDFDYWGQGTLVTVSS VL: EIVLTQSPATLSLSPGERATLSCRASQSVANWLAWYQQKPGQAPRLLIYYASNRATGIPARFSGSGSGTDFTLTISSLEPEDFAVYYCQQYDGWPRTFGQGTKVEIK

>  <assay value>
4.17 nM

$$$$
>  <binder>
I3RB19 (antibody, IgG1, V domains shown, IgG1; also called 13RB19) VH: EVQLLESGGGLVQPGGSLRLSCAASGFTFSNYAMSWVRQAPGKGLEWVSGIRGNGSSTYYADSVKGRFTISRDNSKNTLYLQMNSLRAEDTAVYYCAKGGPIGARFPDYLDYWGQGTLVTVSS VL: DIQMTQSPSSLSASVGDRVTITCRASQSIGDFLNWYQQKPGKAPKLLIYYASSLQSGVPSRFSGSGSGTDFTLTISSLQPEDFATYYCQQSYSTPLTFGQGTKVEIK

>  <assay value>
119 nM

$$$$

# ---- query binder ----
## Task Find the recorded Kd belonging to I3RB22 (antibody, IgG1, V domains shown, IgG1) VH: QVQLVQSGAEVKKPGSSVKVSCKASGGTFSSYAISWVRQAPGQGLEWMGGIIPIFGTANYAQKFQGRVTITADESTSTAYMELSSLRSEDTAVYYCARNLFYWADSVYLDYWGQGTLVTVSS VL: EIVLTQSPATLSLSPGERATLSCRASQSVNKWLAWYQQKPGQAPRLLIYYASNRATGIPARFSGSGSGTDFTLTISSLEPEDFAVYYCQQGIDWPRTFGQGTKVEIK and report it.
## Result 4.12 nM
